Assay system: T1, extracellular domain of hCD4 fused with human Fc tag (hCD4-hFc) (human, UniProt P01730 26-396)
T1 construct: extracellular domain; also called human CD4-hFc; hCD4 (ELISA); not shown: human Fc tag
Test protocol: ELISA, chimeric antibody on hCD4, method similar to Example 2
Attribute measured: EC50 (µg/mL)
// return numeric value only (unit: µg/mL, not printed)

binder="Chimeric 33E12 anti-CD4 antibody (antibody, human IgG1, kappa, V domains shown) VH: DVQLQESGPGLVKPSQSLSLTCTVTGYSITSDYAWNWIRQFPGNKLEWMGYISYSGITSYNPSLKSRFSITRDTSKNQFFLQLNSVTTEDTATYYCARLDSSGYGAMDYWGQGTSVTVSS VL: DIVLTQSPASLPVSLGQRATISCRASQSVSTSSYSYMHWYQQKPGQPPKLLIRYASNLESGVPARFSGSGSGTDFTLNIHPVEEEDTATYYCQHSWDFPLTFGAGTKLELKR" unit_of_measurement=µg/mL reported=0.0204
binder="Chimeric 29B7 anti-CD4 antibody (antibody, human IgG1, kappa, V domains shown) VH: QVQLQQSGAELAKPGASVKMSCKTSADSLNTHWMHWVKQRPGQGLEWIGYINPYTGSGEYSQKFKGKATLTADISSSTAYMQLISLTSEDSAVYYCAYDSTGAMDYWGQGTSVTVSS VL: DIKMTQSPSSMYASLGERITITCKASQDINRYLSWFQQKPGKSPKTPIYRADRSVDGVPSRFSGSGSGQDYSLTISSLEYEDMGIYYCQQYDEFPYTFGGGTKLEIKR" unit_of_measurement=µg/mL reported=0.0243

Next:
# EC50 of Chimeric 11E12 anti-CD4 antibody (antibody, human IgG1, kappa, V domains shown) VH: EVQLEESGPSLVKPSQTLSLTCSVTGDSITSSYWNWIRKFPGHKLEFLGYISFADTTNYNPSLKSRISITRDTSKNQFDLQLKSVTTEDTATYYCARDDFGYYAMDYWGQGISVTVSS VL: DIYVTQTTSSLSASLGDRVTIICRASQDINNYLNWYQLKPDGTLKLLIYYTSRLHSGVPSRFGGSGSGTEYSLTISNLEQEDVATYFCQQGNTLPTFGAGTKLELKR = 0.0168
